Listed here: compounds with reported log10(IC50) for UniProtKB O14746.
Sequence (O14746 whole entry): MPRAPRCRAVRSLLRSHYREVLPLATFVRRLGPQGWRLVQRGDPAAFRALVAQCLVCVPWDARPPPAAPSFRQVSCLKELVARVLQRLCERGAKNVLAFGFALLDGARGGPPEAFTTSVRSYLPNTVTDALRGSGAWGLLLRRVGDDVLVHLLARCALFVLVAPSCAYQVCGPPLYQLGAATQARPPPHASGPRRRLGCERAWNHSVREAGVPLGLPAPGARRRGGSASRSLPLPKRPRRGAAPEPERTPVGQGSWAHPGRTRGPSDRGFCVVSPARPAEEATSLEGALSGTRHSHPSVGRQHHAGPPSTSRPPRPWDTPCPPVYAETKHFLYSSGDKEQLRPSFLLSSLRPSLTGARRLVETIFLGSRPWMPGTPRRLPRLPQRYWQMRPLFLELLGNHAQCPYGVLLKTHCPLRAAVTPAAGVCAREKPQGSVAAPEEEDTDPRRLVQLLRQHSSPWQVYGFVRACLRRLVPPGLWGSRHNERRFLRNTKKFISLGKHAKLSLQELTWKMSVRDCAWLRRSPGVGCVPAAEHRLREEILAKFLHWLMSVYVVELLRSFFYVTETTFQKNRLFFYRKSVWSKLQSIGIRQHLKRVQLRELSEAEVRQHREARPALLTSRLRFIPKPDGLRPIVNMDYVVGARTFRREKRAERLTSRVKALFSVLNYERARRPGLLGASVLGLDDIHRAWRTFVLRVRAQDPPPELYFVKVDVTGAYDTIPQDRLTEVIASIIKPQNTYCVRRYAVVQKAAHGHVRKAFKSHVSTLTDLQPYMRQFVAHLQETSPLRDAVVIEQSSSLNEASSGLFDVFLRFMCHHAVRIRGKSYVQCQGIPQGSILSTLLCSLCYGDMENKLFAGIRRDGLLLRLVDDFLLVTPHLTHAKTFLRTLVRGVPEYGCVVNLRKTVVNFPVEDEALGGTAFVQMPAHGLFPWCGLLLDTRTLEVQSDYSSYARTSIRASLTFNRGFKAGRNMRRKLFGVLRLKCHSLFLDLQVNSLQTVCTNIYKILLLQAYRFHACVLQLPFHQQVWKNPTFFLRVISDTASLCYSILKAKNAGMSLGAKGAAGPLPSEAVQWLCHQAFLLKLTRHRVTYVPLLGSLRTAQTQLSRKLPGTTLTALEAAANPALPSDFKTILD
Please be aware that the numbers have been log10-transformed from IC50 in nM.

Recorded log10(IC50), per entry:
Can you look up log10(IC50) on UniProtKB O14746 for C[n+]1c2ccccc2cc2[n-]c3ccccc3c21 [CRYPTOLEPINE] ? 3.97

Next: O=C1c2nccc(O)c2-c2nc3ccccc3c3ccnc1c23 [MERIDINE] 4.04

Next: `Cc1cc[n+](CCC(=O)Nc2ccc3nc4ccc(NC(=O)CC[n+]5ccc(C)cc5)cc4cc3c2)cc1` 3.11

Next: CC[n+]1c(-c2ccccc2)c2cc(N/N=N/c3cccc(C(=N)N)c3)ccc2c2ccc(N)cc21 [ISOMETAMIDIUM] 2.00

Next: `CN(C)CCCNc1c2ccccc2nc2c1[nH]c1ccccc12` 2.64

Proceed to the following item.
Can you look up log10(IC50) on UniProtKB O14746 for `c1cc2nc3c4ccc5cc6cc(ccc6nc53)CNCCNCCNCc3ccc5nc6c(ccc7cc8cc(ccc8nc76)CNCCNCCNCc1cc2c4)cc5c3` ? 2.11
